test system: A549/ATCC NSCLC; test: NCI-60 one-dose screen, 48 h (100 = growth as untreated, 0 = no growth, -100 = all killed); settings: 10 µM
Compounds without any hit were thinned out: in the full panel of roughly 83,000, 20% have a hit.
Property Name: growth (%)
Give bare numbers, in %.

COc1cc(-c2nc3ccc(C)cc3[nH]2)ccc1OCc1nnc(-c2ccc(CC(C)C)cc2)o1 :: 93.5
COC(=O)[C@]12CC[C@@H](C)[C@H](C)[C@@H]1C1=CC[C@@H]3[C@@]4(C)C[C@@H](O)[C@H](O)[C@@](C)(CO)[C@@H]4[C@H](O)C[C@@]3(C)[C@]1(C)CC2 :: -62.3
C[C@@H]1C(=O)N(C[C@H](Cc2ccccc2)NC(=O)OCc2ccccc2)[C@]1(Cc1ccccc1)C(=O)OCc1ccccc1 :: 20.8
c1ccc(OCCC[P+](c2ccccc2)(c2ccccc2)c2ccccc2)cc1 :: 25.6

Next item in the queue.
Please give the measured growth for this compound: CC(C)(C)CC(C)(C)c1ccc(O)c(Cc2ccc(Cl)cc2Cl)c1 -88.5

---

tested on: ACHN renal; assay: NCI-60 one-dose screen, 48 h (100 = growth as untreated, 0 = no growth, -100 = all killed); settings: 10 µM
Compounds without any hit were thinned out: in the full panel of roughly 83,000, 20% have a hit.
Property Name: growth (%)
Answers are plain numbers, in %.

Need growth for each of these compounds.
1. CCNC(=S)NN
2. CC(C)OP(=O)(O)c1ncc(-c2ccc(C(F)(F)F)cc2)c(NC2CCCCCC2)n1
3. CCOc1ccc2c(c1)CC[C@@H]1[C@@H]2CC[C@]2(C)[C@@H](O)[C@@H](O)C[C@@H]12
4. Cc1ccc(Cl)cc1Nc1nc(C(F)(F)F)ccc1C(=O)N/N=C/c1c(Cl)cccc1Cl
5. CC(=O)Nc1nc(C)c(C(=O)NNC=O)s1
6. Oc1[nH]c2ccccc2c1/C=c1/cc2c(c(-c3ccc(C(F)(F)F)cc3)n1)=Nc1ccccc1-2

1. 96.4
2. 34.6
3. 126
4. 0.0524
5. 108
6. 32

---

system: SNB-19 CNS; assay: NCI-60 one-dose screen, 48 h (100 = growth as untreated, 0 = no growth, -100 = all killed); conditions: 10 µM
The panel holds about 83,000 compounds, 20% with a hit somewhere; the sample as a whole holds those more often. Calls of active or inactive are those of the source. How the source made its calls: active means growth percent below 10; inactive means the rest.
Property Name: growth

Observe how each entry below is paired with its result.
O=C(C=P(c1ccccc1)(c1ccccc1)c1ccccc1)c1ccc(Br)cc1 :: 98.6% (inactive)
CCOCC[P+](c1ccccc1)(c1ccccc1)c1ccccc1 :: 48% (inactive)
CCCCCCCCCCCCCC[n+]1ccc(C)cc1 :: -50.2% (active)
Cc1ccc(C)c2c1sc1nc3n[nH]c(N)c3c(=N)n12 :: 99% (inactive)
CC(C)C[C@H](NC(=O)CCn1ccc2ccccc2c1=O)B(O)O :: 66.1% (inactive)
CC(C)/C=N/NC(N)=S :: 98.3% (inactive)
CN1/C(=C\C(I)C(I)C2=[N+](C)c3ccccc3C2(C)C)C(C)(C)c2ccccc21 (configuration not stated) :: 18.9% (inactive)
COC(=O)c1ccc(Cn2ccc(=O)[nH]c2=O)cc1 :: 110% (inactive)

Need growth for each of these compounds.
1. CCCCCCCCCCCCCCCC(=O)N1CCN(C)CC1
2. CCC(O)c1ccc(Br)cc1NC(=O)c1cccc(Cl)c1 (configuration not stated)
3. FC(F)(F)c1ccc(-c2cnc(Br)nc2NC2CCCCCC2)cc1
4. CN(C)c1ccc2cc(-c3cc4c(oc3=O)-c3ccccc3OC4O)c(=O)oc2c1 (configuration not stated)

1: 105% (inactive); 2: 21.2% (inactive); 3: 42.9% (inactive); 4: 36.7% (inactive)
